# study.system: Flt3 kinase (Homo sapiens, UniProt P36888)
# Construct: recombinant N-terminal 6×His-tagged Flt3 kinase domain construct expressed from baculovirus; 6xHis (N); made in house
# Sequence (P36888 610-943 limits assumed): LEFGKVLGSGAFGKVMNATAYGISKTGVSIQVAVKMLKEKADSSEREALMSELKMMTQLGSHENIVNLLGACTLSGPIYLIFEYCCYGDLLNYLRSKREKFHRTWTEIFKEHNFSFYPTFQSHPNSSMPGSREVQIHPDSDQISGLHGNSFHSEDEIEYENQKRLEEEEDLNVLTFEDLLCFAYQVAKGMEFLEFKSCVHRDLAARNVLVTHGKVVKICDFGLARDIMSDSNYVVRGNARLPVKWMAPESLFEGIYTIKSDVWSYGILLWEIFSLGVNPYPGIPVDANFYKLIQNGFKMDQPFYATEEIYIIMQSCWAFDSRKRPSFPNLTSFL
# run.description: Flt3 kinase assay (33P incorporation into Poly(Glu-Tyr))
# Format: biochemical
# assay.context: 100 nM test compound; read-out: Inhibition at 100 nM (%) Flt-3
# Description: Inhibition of Flt3 kinase activity by compounds disclosed herein was quantified by measuring the amount of [^33P] incorporated into the substrate in the presence of a test compound. […] The plate was then sealed and counted using a TopCount scintillation detector (PerkinElmer). The percentage of inhibition rate of the test compound was calculated by dividing the retained radioactivity of the test sample with the retained radioactivity of the control sample and shown in Table 3.
readout.name: inhibition at 0.1 µM (%)

Recorded results for 4 compounds are shown here.
[
  {
    "chem.smiles": "O=C(O)CCc1c(/C=C2\\C(=O)Nc3ccc(NC(=O)c4ccccc4)cc32)[nH]c2c1C(=O)CCC2",
    "assay.value": 2
  },
  {
    "chem.smiles": "O=C(O)CCc1c(/C=C2\\C(=O)Nc3ccc(NS(=O)(=O)c4ccccc4)cc32)[nH]c2c1C(=O)CCCC2",
    "assay.value": 43.8
  },
  {
    "chem.smiles": "CCOC(=O)CCc1c(/C=C2\\C(=O)Nc3cc(Br)ccc32)[nH]c2c1C(=O)CCC2",
    "assay.value": 89.1
  },
  {
    "chem.smiles": "CNS(=O)(=O)c1ccc2c(c1)/C(=C/c1[nH]c3c(c1CCC(=O)O)C(=O)CCC3)C(=O)N2",
    "assay.value": -6.8
  }
]

A = COc1cc(-c2ccc3c(c2)/C(=C/c2[nH]c4c(c2CCC(=O)O)C(=O)CCC4)C(=O)N3)ccc1O
B = O=C(O)CCc1c(C=C2C(=S)Nc3cc(Br)ccc32)[nH]c2c1C(=O)CCC2
Prompt line: Min inhibition at 0.1 µM? A | B When you have decided, please share the label of that item.
Response line: B
(B: 0.5%, A: 21.5%)

I = COc1ccc(C(=O)Nc2ccc3c(c2)/C(=C/c2[nH]c4c(c2CCC(=O)O)C(=O)CCC4)C(=O)N3)cc1
II = CCOC(=O)CCc1c(/C=C2\C(=O)Nc3ccc(NS(=O)(=O)c4ccc(F)cc4)cc32)[nH]c2c1C(=O)CCC2
Prompt line: Larger number for inhibition at 0.1 µM: I , or II ? When you have decided, please share the label of that item.
Response line: II
(II: 38.7%, I: 6%)

1 = O=C(O)CCc1c(/C=C2\C(=O)Nc3ccc(-c4cc5ccccc5s4)cc32)[nH]c2c1C(=O)CCC2
2 = Cc1ccc(NC(=O)Nc2ccc3c(c2)/C(=C/c2[nH]c4c(c2CCC(=O)O)C(=O)CCC4)C(=O)N3)cc1
Prompt line: Min inhibition at 0.1 µM? 1 | 2 When you have decided, please share the label of that item.
Response line: 1
(1: 13.3%, 2: 44.7%)

====

# study.system: Aurora B kinase (Homo sapiens)
# Construct: purchased Cell signaling
# Sequence (Q96GD4 whole entry): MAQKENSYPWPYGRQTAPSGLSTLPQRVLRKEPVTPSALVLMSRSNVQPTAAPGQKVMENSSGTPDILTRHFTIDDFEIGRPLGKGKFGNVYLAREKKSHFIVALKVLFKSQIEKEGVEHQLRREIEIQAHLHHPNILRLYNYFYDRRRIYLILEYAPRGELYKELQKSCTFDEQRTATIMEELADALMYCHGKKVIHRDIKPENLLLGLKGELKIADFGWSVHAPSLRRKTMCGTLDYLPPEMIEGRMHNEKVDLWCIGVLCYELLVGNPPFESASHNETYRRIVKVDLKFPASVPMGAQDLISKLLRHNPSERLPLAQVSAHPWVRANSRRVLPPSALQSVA
# run.description: Aurora B kinase assay ([γ-33P]ATP, CHOCKtide substrate)
# Format: biochemical
# assay.context: 1.0 μM test compound
readout.name: inhibition at 1 µM (%)

Recorded results for 3 compounds are shown here.
[
  {
    "chem.smiles": "CCOC(=O)CCc1c(/C=C2\\C(=O)Nc3ccc(NC(=O)Nc4ccc(C)cc4)cc32)[nH]c2c1C(=O)CCC2",
    "inhibition at 1 µM [%]": 10.8
  },
  {
    "chem.smiles": "CC(=O)Nc1ccc2c(c1)/C(=C/c1[nH]c3c(c1CCC(=O)O)C(=O)CCC3)C(=O)N2",
    "inhibition at 1 µM [%]": 12.8
  },
  {
    "chem.smiles": "CCN(CC)CCCc1c(/C=C2\\C(=O)Nc3ccc(S(=O)(=O)Cc4c(Cl)cccc4Cl)cc32)[nH]c2c1C(=O)CCC2",
    "inhibition at 1 µM [%]": 83.2
  }
]

I = CCN(CC)C(=O)CCc1c(/C=C2\C(=O)Nc3ccc(F)cc32)[nH]c2c1C(=O)CCC2
II = O=C(O)CCc1c(/C=C2\C(=O)Nc3ccc(-c4cc5ccccc5s4)cc32)[nH]c2c1C(=O)CCC2
Prompt line: Larger number for inhibition at 1 µM: I , or II ? When you have decided, please share the label of that item.
Response line: I

P = CCOC(=O)CCc1c(/C=C2\C(=O)Nc3ccc(NC(=O)Nc4ccccc4)cc32)[nH]c2c1C(=O)CCC2
Q = O=C(O)CCc1c(/C=C2\C(=O)Nc3cc(F)ccc32)[nH]c2c1C(=O)CCC2
Prompt line: Min inhibition at 1 µM? P | Q When you have decided, please share the label of that item.
Response line: P
(P: 5.7%, Q: 13.3%)

P = O=C(O)CCc1c(/C=C2\C(=O)Nc3ccc(NS(=O)(=O)c4cc(Cl)cc(Cl)c4)cc32)[nH]c2c1C(=O)CCC2
Q = CC1(C)CC(=O)c2c([nH]c(/C=C3\C(=O)Nc4ccc(S(=O)(=O)N5CCc6ccccc65)cc43)c2CCC(=O)O)C1
R = CCOC(=O)CCc1c(/C=C2\C(=O)Nc3ccc(NC(=O)Nc4cccc5ccccc45)cc32)[nH]c2c1C(=O)CCC2
S = CNS(=O)(=O)c1ccc2c(c1)/C(=C/c1[nH]c3c(c1CCC(=O)O)C(=O)CCC3)C(=O)N2
Prompt line: Order the 4 compounds from highest to lowest inhibition at 1 µM. Returns: the labels listed in the requested order.
Response line: P, S, Q, R
(P: 41.7%, S: 25.6%, Q: 14.6%, R: 5.8%)

====

# study.system: Aurora A kinase (Homo sapiens, UniProt O14965)
# Construct: purchased Upstate
# Sequence (O14965 whole entry): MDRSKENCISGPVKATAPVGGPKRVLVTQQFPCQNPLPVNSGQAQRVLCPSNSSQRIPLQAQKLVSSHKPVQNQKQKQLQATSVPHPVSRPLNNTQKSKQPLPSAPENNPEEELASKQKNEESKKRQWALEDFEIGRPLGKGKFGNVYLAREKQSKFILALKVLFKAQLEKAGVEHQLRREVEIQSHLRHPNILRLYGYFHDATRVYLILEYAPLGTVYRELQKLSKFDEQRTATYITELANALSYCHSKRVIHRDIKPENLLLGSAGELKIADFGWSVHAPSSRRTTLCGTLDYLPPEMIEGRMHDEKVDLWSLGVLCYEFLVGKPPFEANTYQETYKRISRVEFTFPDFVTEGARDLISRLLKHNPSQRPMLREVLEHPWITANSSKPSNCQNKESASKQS
# run.description: Aurora A kinase assay ([γ-33P]ATP, CHOCKtide substrate)
# Type: biochemical
# assay.context: 1.0 μM test compound
readout.name: inhibition at 1 µM (%)

Recorded results for 6 molecules are shown here.
[
  {
    "chem.smiles": "O=C(O)CCc1c(/C=C2\\C(=O)Nc3ccc(NS(=O)(=O)c4ccccc4)cc32)[nH]c2c1C(=O)CCC2",
    "study.system": "Aurora A kinase (Homo sapiens, UniProt O14965)",
    "readout.name": "inhibition at 1 µM",
    "assay.value": 98.9
  },
  {
    "chem.smiles": "CCOC(=O)CCc1c(/C=C2\\C(=O)Nc3ccc(NC(=O)c4ccc(F)cc4)cc32)[nH]c2c1C(=O)CCC2",
    "study.system": "Aurora A kinase (Homo sapiens, UniProt O14965)",
    "readout.name": "inhibition at 1 µM",
    "assay.value": 19.3
  },
  {
    "chem.smiles": "CCOC(=O)CCc1c(/C=C2\\C(=O)Nc3cc(F)ccc32)[nH]c2c1C(=O)CCC2",
    "study.system": "Aurora A kinase (Homo sapiens, UniProt O14965)",
    "readout.name": "inhibition at 1 µM",
    "assay.value": 34.1
  },
  {
    "chem.smiles": "O=C(O)CCc1c(/C=C2\\C(=O)Nc3cc(-c4ccc(O)c(O)c4)ccc32)[nH]c2c1C(=O)CCC2",
    "study.system": "Aurora A kinase (Homo sapiens, UniProt O14965)",
    "readout.name": "inhibition at 1 µM",
    "assay.value": 91.6
  },
  {
    "chem.smiles": "COc1cccc(S(=O)(=O)Nc2ccc3c(c2)/C(=C/c2[nH]c4c(c2CCC(=O)O)C(=O)CCC4)C(=O)N3)c1",
    "study.system": "Aurora A kinase (Homo sapiens, UniProt O14965)",
    "readout.name": "inhibition at 1 µM",
    "assay.value": 91.8
  },
  {
    "chem.smiles": "O=C(O)CCc1c(/C=C2\\C(=O)Nc3ccc(S(=O)(=O)Cc4c(Cl)cccc4Cl)cc32)[nH]c2c1C(=O)CCC2",
    "study.system": "Aurora A kinase (Homo sapiens, UniProt O14965)",
    "readout.name": "inhibition at 1 µM",
    "assay.value": 65.5
  }
]

A = CCOC(=O)CCc1c(/C=C2\C(=O)Nc3ccc(NS(=O)(=O)CC)cc32)[nH]c2c1C(=O)CCC2
B = COc1ccc(C(=O)Nc2ccc3c(c2)/C(=C/c2[nH]c4c(c2CCC(=O)O)C(=O)CCC4)C(=O)N3)cc1
C = CCN(CC)CCNC(=O)CCc1c(/C=C2\C(=O)Nc3ccc(S(=O)(=O)N4CCc5ccccc54)cc32)[nH]c(C)c1C(C)=O
Prompt line: # rank by inhibition at 1 µM, ascending (min first) Returns: the labels listed in the requested order.
Response line: C, B, A
(C: 15.4%, B: 31.8%, A: 81.2%)

====

# study.system: Aurora A kinase (Homo sapiens)
# Construct: purchased Upstate
# run.description: Aurora A kinase assay ([γ-33P]ATP, CHOCKtide substrate)
# Format: biochemical
# assay.context: 1.0 μM test compound
readout.name: inhibition at 1 µM (%)

[
  {
    "chem.smiles": "CCCCCCC#Cc1ccc2c(c1)NC(=O)/C2=C\\c1[nH]c2c(c1CCC(=O)O)C(=O)CCC2",
    "study.system": "Aurora A kinase (Homo sapiens)",
    "assay.value": 73
  },
  {
    "chem.smiles": "O=C(O)CCc1c(/C=C2\\C(=O)Nc3ccc(NS(=O)(=O)c4ccc5ccccc5c4)cc32)[nH]c2c1C(=O)CCC2",
    "study.system": "Aurora A kinase (Homo sapiens)",
    "assay.value": 40.6
  },
  {
    "chem.smiles": "CCS(=O)(=O)c1ccc2c(c1)/C(=C/c1[nH]c3c(c1CCC(=O)O)C(=O)CCC3)C(=O)N2",
    "study.system": "Aurora A kinase (Homo sapiens)",
    "assay.value": 100
  }
]

I = CC(=O)c1c(C)[nH]c(/C=C2\C(=O)Nc3ccc(S(=O)(=O)Cc4c(Cl)cccc4Cl)cc32)c1CCC(=O)O
II = CCOC(=O)CCc1c(/C=C2\C(=O)Nc3ccc(OC)cc32)[nH]c2c1C(=O)CCCC2
III = CCOC(=O)CCc1c(/C=C2\C(=O)Nc3ccc(S(=O)(=O)Cc4c(Cl)cccc4Cl)cc32)[nH]c2c1C(=O)CC(C)(C)C2
IV = CC1(C)CC(=O)c2c([nH]c(/C=C3\C(=O)Nc4ccc(NS(=O)(=O)c5ccccc5)cc43)c2CCC(=O)O)C1
V = CCOC(=O)CCc1c(C=C2C(=S)Nc3cc(Br)ccc32)[nH]c2c1C(=O)CCC2
Prompt line: # rank by inhibition at 1 µM, ascending (min first) Returns: the labels listed in the requested order.
Response line: II, III, V, I, IV
(II: -0.3%, III: 5.2%, V: 11.2%, I: 40.2%, IV: 79.6%)

A = CCOC(=O)CCc1c(/C=C2\C(=O)Nc3ccc(NS(=O)(=O)c4ccccc4)cc32)[nH]c(C)c1C(C)=O
B = CCN(CC)CCNC(=O)CCc1c(/C=C2\C(=O)Nc3ccc(S(=O)(=O)Cc4c(Cl)cccc4Cl)cc32)[nH]c(C)c1C(C)=O
Prompt line: Larger number for inhibition at 1 µM: A , or B ? When you have decided, please share the label of that item.
Response line: A
